Each entry below carries its recorded Metabolic stability (Qh %), % hepatic blood flow.
- protocol.notes: Human liver microsome (HLM) metabolic stability assay
- Assay type: in vitro ADME
- condition.notes: human liver microsomes
value.kind: Metabolic stability (Qh %), % hepatic blood flow

molecule="CO[C@@H]1CN(c2cccc(-c3cccc(C)c3OCc3ccc4c(c3C)CCN([C@H]3CCOC3)CC4)n2)CC[C@@H]1C(=O)O [Compound 301]" data_value=<24%
molecule="Cc1cccc(-c2csc(N3CC[C@@]4(C(=O)O)C[C@H]4C3)n2)c1OCc1ccc2c(c1C)CCN(C1CCOC1)C2 (stereo partly drawn) [Compound 88]" data_value=43%
molecule="Cc1nccnc1C(C)N1CCc2c(ccc(COc3ccccc3-c3cccc(N4CC[C@@]5(C(=O)O)C[C@H]5C4)n3)c2C)C1 (stereo partly drawn) [Compound 309]" data_value=54%

---

- protocol.notes: physchem
- condition.notes: pH 4.5, aqueous buffer, kinetic from dmso stock, Solubility (pH 4.5)
value.kind: solubility at 24 h (µg/mL)

compound="CO[C@H]1CN(c2nc(-c3cccc(C)c3OCc3cc(F)c4c(c3)CCN(C3CCOCC3)C4)cs2)CC[C@H]1C(=O)O [Compound 172]" data_value=98
compound="CO[C@@H]1CN(c2nc(-c3cccc(Cl)c3OCc3ccc4c(c3)[C@@H](C)CN(C3CCOCC3)CC4)cs2)CC[C@@H]1C(=O)O [Compound 332]" data_value=86.6
compound="Cc1cccc(-c2cccc(N3CC4OCC3C4C(=O)O)n2)c1OCc1ccc2c(c1C)CCN(C1CCOCC1)C2 (stereo not drawn) [Compound 214]" data_value=108
compound="COc1cc(COc2c(C)cccc2-c2cccc(N3C[C@@H]4C[C@]4(C(=O)O)C3)n2)cc2c1CN(C1COC1)CC2 [Compound 28]" data_value=90
compound="Cc1cc(COc2c(C)cccc2-c2csc(N3CC[C@@]4(C(=O)O)C[C@H]4C3)n2)cc2c1CN(C1CCCOC1)CC2 (stereo partly drawn) [Compound 94]" data_value=55
compound="Cc1ccc(OCc2cc(C)c3c(c2C)CCN(C2COC2)C3)c(-c2cccc(N3C[C@@H]4C[C@]4(C(=O)O)C3)n2)c1 [Compound 40]" data_value=79

---

- assay.target: human soluble guanylate cyclase alpha 1 and beta 1 subunits (sGC) (Homo sapiens (Human), UniProt Q02108+Q02153)
- Sequence (Q02108 whole entry partner): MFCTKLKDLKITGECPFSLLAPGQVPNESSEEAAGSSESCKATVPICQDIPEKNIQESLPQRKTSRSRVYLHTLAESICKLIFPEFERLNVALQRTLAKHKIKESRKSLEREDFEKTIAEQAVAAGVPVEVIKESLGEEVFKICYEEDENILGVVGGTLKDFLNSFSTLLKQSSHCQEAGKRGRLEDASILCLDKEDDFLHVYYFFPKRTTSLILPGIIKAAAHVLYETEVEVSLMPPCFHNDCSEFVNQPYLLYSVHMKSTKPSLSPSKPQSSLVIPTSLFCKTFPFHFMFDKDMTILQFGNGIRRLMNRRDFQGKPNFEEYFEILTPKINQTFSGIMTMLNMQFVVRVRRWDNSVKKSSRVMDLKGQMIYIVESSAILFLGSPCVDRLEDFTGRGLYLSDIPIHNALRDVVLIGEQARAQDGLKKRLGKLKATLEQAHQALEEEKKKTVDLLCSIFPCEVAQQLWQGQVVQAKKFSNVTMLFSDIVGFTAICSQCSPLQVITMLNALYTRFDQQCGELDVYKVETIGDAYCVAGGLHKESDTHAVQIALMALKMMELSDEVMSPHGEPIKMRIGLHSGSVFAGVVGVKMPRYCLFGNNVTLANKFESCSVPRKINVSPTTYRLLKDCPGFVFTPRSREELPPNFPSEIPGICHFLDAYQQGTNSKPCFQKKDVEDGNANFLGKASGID
- Sequence (Q02153 whole entry): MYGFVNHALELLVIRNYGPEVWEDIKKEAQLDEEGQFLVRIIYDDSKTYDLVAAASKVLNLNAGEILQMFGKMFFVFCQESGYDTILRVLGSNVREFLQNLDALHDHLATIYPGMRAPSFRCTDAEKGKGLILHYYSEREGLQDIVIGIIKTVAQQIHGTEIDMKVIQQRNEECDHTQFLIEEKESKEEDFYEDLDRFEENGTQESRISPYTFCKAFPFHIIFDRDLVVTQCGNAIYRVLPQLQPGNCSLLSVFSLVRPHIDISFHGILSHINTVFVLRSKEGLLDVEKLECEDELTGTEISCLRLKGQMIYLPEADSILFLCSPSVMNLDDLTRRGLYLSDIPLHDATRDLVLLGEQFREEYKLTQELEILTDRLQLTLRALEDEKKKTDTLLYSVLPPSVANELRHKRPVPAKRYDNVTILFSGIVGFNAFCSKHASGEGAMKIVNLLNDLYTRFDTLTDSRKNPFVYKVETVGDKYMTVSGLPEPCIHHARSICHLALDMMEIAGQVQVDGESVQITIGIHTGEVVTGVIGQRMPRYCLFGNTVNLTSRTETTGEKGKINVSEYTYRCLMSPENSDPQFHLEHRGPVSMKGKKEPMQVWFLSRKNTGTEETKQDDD
- protocol.notes: sGC cellular activator assay (cGMP, HTRF), in the presence and absence of 50% human serum
- condition.notes: CHO cells stably expressing human sGC alpha 1/beta 1, preincubated with 40 microM ODQ; cGMP by HTRF; Table 2 does not state whether with or without 50% human serum
pEC50: −log10 of the molar value.
Is pEC50 at least 7? Then t. If not, f.

compound=CCO[C@@H]1CN(c2nc(-c3cccc(C)c3OCc3cc4c(c(OC)c3)CN(C3CCOCC3)CC4)cs2)CC[C@@H]1C(=O)O class_name=t
compound=Cc1cccc(-c2csc(N3C[C@@H]4C[C@]4(C(=O)O)C3)n2)c1OCc1ccc2c(c1C)CCN(C1COC1)CC2 class_name=t
compound=CCO[C@H]1CN(c2nccc(-c3cccc(C)c3OCc3cc(C)c4c(c3)CCN(C3CCOCC3)C4)n2)CC[C@H]1C(=O)O class_name=t
compound=COC[C@H]1N(c2cccc(-c3cccc(C(F)(F)F)c3OCc3cc(C)c4c(c3)CCN(C3COC3)C4)n2)C[C@@H]2C[C@@]21C(=O)O class_name=t
compound=CO[C@@H]1CN(c2cccc(-c3cc(C)ccc3OCc3ccc4c(c3C)CCN(C3CCOCC3)C4)n2)CC[C@@H]1C(=O)O class_name=t
compound=Cc1ccc(OCc2cc(C)c3c(c2)CCN(C2CCOCC2)C3)c(-c2cccc(N3C[C@@H]4C[C@]4(C(=O)O)C3)n2)c1 class_name=f
compound="COC[C@H]1N(c2nccc(-c3cccc(C)c3OCc3cc(C)c4c(c3)CCN(C3CCOCC3)C4)n2)CC2C[C@@]21C(=O)O (stereo partly shown)" class_name=t
compound=Cc1cc(COc2c(C)cccc2-c2csc(N3C[C@H]4C[C@@]4(C(=O)O)[C@@H]3C)n2)cc2c1CN(C1COC1)CC2 class_name=t
compound=COCc1cc(COc2c(C)cccc2-c2cccc(N3C[C@@H]4C[C@]4(C(=O)O)[C@H]3COC)n2)cc2c1CN(C1COC1)CC2 class_name=f
compound=COC[C@H]1N(c2cccc(-c3cccc(C)c3OCc3cc4c(c(OC)c3)CN(C3COC3)CC4)n2)C[C@@H]2C[C@@]21C(=O)O class_name=t
compound=COC[C@H]1N(c2cccc(-c3cccc(C)c3OCc3ccc4c(c3F)CCN(C3CCOCC3)CC4)n2)C[C@@H]2C[C@@]21C(=O)O class_name=t
